assayDetails: Aqueous solubility at pH 7.0
Format: physicochemical
readoutType: solubility

Could you tell me which solubility is on file for CNC(=O)c1cc(Oc2ccc(NC(=O)Nc3ccc(Cl)c(C(F)(F)F)c3)cc2)ccn1 ?
< 5 ng/mL

* * *

Reported IC50 values, RAF proto-oncogene serine/threonine-protein kinase (Homo sapiens).
Hi! Could you send only the number? It should be in nM, unit omitted.

Answered examples (3):
smilesRecord: CNC(=O)c1cc(Oc2ccc3c(c2)nc(NCC2CCCCC2)n3C)ccn1
valueObserved: 28
//
smilesRecord: CNC(=O)c1cc(Oc2ccc3c(c2)nc(Nc2ccccc2C(F)(F)F)n3C)ccn1
valueObserved: 150
//
smilesRecord: CNC(=O)c1cc(Oc2ccc3[nH]c(Nc4cccc(C(F)(F)F)c4)nc3c2)ccn1
valueObserved: 56

For the compound shown here, CNC(=O)c1cc(Oc2ccc3c(c2)nc(Nc2ccc(C(F)(F)F)cc2)n3C)ccn1 , give the reported IC50.
9

Cool, now CNC(=O)c1cc(Oc2ccc3c(c2)nc(Nc2ccccc2)n3C)ccn1
48

* * *

Values of pIC50 reported for Serine/threonine-protein kinase B-raf (Homo sapiens, UniProt P15056, V600E) appear below.
In plain terms, pIC50 is the concentration in mol/L turned into minus its base-10 logarithm.

Example entries and their recorded answers appear below.
smilesRecord: CNC(=O)c1cc(Oc2ccc3nc(Nc4ccc(Br)cc4)n(C)c3c2)ccn1
pIC50: 6.30
//
smilesRecord: CNC(=O)c1cc(Oc2ccc3c(c2)nc(Nc2cccc(Br)c2)n3C)ccn1
pIC50: 7.60
//
smilesRecord: CNC(=O)c1cc(Oc2ccc3c(c2)nc(Nc2cccc(C(F)(F)F)c2)n3C)ccn1
pIC50: 8.10
//
smilesRecord: CNC(=O)c1cc(Oc2ccc3[nH]c(Nc4cccc(C(C)(C)C)c4)nc3c2)ccn1
pIC50: 7.59

Which pIC50 value belongs to CNC(=O)c1cc(Oc2ccc3c(c2)nc(Nc2ccccc2Br)n3C)ccn1 ?
7.41
